Sourced from ChEMBL document CHEMBL1201862

Reported GI50 values for a set of compounds
Test system: SK-OV-3
Test: NCI tumour cell line growth inhibition, 48 h
Activity calls are given as the source filed them. No stated cut-off is given here; in the data, active = GI50 up to about 1.1 µM and inactive = higher.

# annotated cases, reported GI50 shown
compound CCOC(=O)CCC(NC(=O)c1ccc(OCc2ccc3nc(-c4ccccc4)c(Cl)nc3c2)cc1)C(=O)OCC (stereo not given) , GI50 observed: 52.1 µM (inactive)

// field: GI50; key: `NC(=S)N/N=C1\C(=O)Nc2c(Cl)cc(Cl)cc21` ; value = 41.9 µM (inactive)

Entry CCC1=CCC(P(=O)(c2ccccc2)c2ccccc2)CC1C (stereo not given) , GI50 reported as 62.8 µM (inactive)

Others:
The value of GI50 measured for the compound `C=Nc1ccc([N+](=O)[O-])cc1` turned out to be > 100 µM (inactive)

Value of GI50 reported for the compound `O=C1C(c2ccc(C3=[N+]([O-])c4cc([N+](=O)[O-])ccc4C3=O)cc2)=[N+]([O-])c2cc([N+](=O)[O-])ccc21` is > 10 µM (inactive)

Short answer for `O=C1CCC(=O)N1n1c(Cc2ccc(Cl)cc2)n[nH]c1=O` : GI50 was > 100 µM (inactive)

The value of GI50 measured for the compound `CS(=O)(=O)OC1CCN(C2(c3cccc(O)c3)CCCCC2)CC1` turned out to be 37 µM (inactive)

Lab note: CC1(C)C2CC(c3ccncc3)ON2C(C)(C)N1O (stereo not given) gave GI50 of > 100 µM (inactive)

The reported GI50 of the compound C(CCC[Te][Te]CCCCCCOC1CCCCO1)CCOC1CCCCO1 (stereo not given) was 39.6 µM (inactive)

According to the records, this compound CCCN(CCCC(NC(C)=O)C(=O)NCc1ccccc1)C(=O)N(CCCl)N=O (stereo not given) displays GI50 of 25.7 µM (inactive)

---

Test system: 786-0
Experiment: NCI tumour cell line growth inhibition, 48 h
The source made the active and inactive calls. Rule as the data show it: active = GI50 up to about 1.1 µM and inactive = higher.
MEASURED_PROPERTY: GI50

Use these answered entries as a reference point.
Lab note: CCC1(O)C(=O)OCc2c1cc1n(c2=O)Cc2cc3ccccc3nc2-1 (centres undefined) gave GI50 of 0.0279 µM (active)

Measured GI50 of `Cc1ccc([N+](=O)[O-])c2c(NCCC[N+](C)(C)[O-])c3ccccc3nc12` : 2.02 µM (inactive)

Entry Cc1ccc(Sc2ccccc2C23OC(C)(C4C(=O)N(c5ccccc5)C(=O)C42)N(C)C3=O)cc1 (centres undefined) ; GI50 = 96.6 µM (inactive)

For reference, reported GI50 for CC(NC(=O)/C(C#N)=C/c1ccc2[nH]ccc2c1)c1ccccc1 (centres undefined) stands at 16.7 µM (inactive)

Notebook: `C=Cc1cc2c(cc1O)CC[C@@H]1[C@@H]2CC[C@]2(C)[C@@H](O)CC[C@@H]12` , GI50 read as 4.13 µM (inactive)

The value of GI50 measured for the compound `O=C(NCCc1ccc(F)cc1)c1cc(/C=C/c2cc(O)ccc2O)ccc1O` turned out to be 2.24 µM (inactive)

Per the record, `Cc1c(CCN=P(c2ccccc2)(c2ccccc2)c2ccccc2)c(=O)n2c([nH]c3ccccc32)c1C#N` has GI50 of > 10 µM (inactive)

Please fill in: GI50 reported for COC1=CC(=O)C2[C@H]3Cc4ccccc4[C@H]3C2(C)C1=O (some centres undefined) = > 100 µM (inactive)

Next:
So, `O=C1N[C@H]2c3c(Cl)sc(Cl)c3[C@@H](O)[C@H]2O1` ? Its GI50 was > 100 µM (inactive)
